Target: T1, human CD3εδ-Fc heterodimer (Hu CD3ε Fc / CD3δ Fc-HIS) (human, UniProt P04234 22-100)
T1 construct: range 22-100; Produced in HEK 293 cells with a heterologous signal peptide; heterodimer purified by Ni Sepharose and Mono Q; also called Hu CD3εδ Fc heterodimer; CD3εδ Fc-HIS heterodimer; not shown: Fc-HIS part of CD3δ Fc-HIS
T1 sequence (chain, as listed by the source mutant, form in doubt, chain 1 of 2): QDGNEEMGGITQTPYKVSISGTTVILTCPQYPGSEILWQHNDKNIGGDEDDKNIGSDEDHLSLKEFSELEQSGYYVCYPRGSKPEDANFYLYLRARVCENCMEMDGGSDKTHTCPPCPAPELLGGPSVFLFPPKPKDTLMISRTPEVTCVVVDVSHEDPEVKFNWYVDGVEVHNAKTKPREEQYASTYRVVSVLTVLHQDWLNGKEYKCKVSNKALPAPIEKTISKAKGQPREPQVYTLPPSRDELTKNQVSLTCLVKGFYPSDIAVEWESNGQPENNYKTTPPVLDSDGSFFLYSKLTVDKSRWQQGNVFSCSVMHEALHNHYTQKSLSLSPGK
T1 sequence (P04234 22-100, stated change not applied, form in doubt, chain 2 of 2): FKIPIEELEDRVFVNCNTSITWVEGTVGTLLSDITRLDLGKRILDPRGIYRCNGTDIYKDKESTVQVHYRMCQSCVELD
Experiment: SPR (Biacore 8K), yeast-produced Fab, monovalent, pH 6.0
Field 'label' (enum: yes / no). Set to yes when Kd is strictly under 6 nM; else no.

binder	assigned_class
Fab of ADI-79848 (Antibody No. 9) (Fab, V domains shown, Fab made by papain digestion of the yeast-produced human IgG1; also called Antibody No. 9 Fab; ADI-79848 Fab) VH: QVQLVQSGAEVKKPGASVKVSCKASGFNIKDYYMHWVRQAPGQRLEWMGWIDLENANTIYDAKFQGRVTITRDTSASTAYMELSSLRSEDTAVYYCARDAYGRYFYDVWGQGTLVTVSS VL: DIVMTQSPDSLAVSLGERATINCKSSQSLLNARTGHNYLAWYQQKPGQPPKLLIYWASTRESGVPDRFSGSGSGTDFTLTISSLQAEDVAVYYCKQSYSRRTFGGGTKVEIK	yes
Fab of ADI-74965 (Antibody No. 3) (Fab, V domains shown, Fab made by papain digestion of the human IgG1 (yeast- or CHO-produced); also called Antibody No. 3 Fab; ADI-74965 Fab) VH: QVQLVQSGAEVKKPGASVKVSCKASGFNIKDYYMHWVRQAPGQRLEWMGWIDLENANTIYDAKFQGRVTITRDTSASTAYMELSSLRSEDTAVYYCARDAYHRYFYDVWGQGTLVTVSS VL: DIVMTQSPDSLAVSLGERATINCKSSQSLLNARTGHNYLAWYQQKPGQPPKLLIYWASTRESGVPDRFSGSGSGTDFTLTISSLQAEDVAVYYCKQSHSHRTFGGGTKVEIK	no
Fab of ADI-26906 (Antibody No. 1) (Fab, V domains shown, Fab made by papain digestion of the human IgG1 (yeast- or CHO-produced); also called Antibody No. 1 Fab; ADI-26906 Fab) VH: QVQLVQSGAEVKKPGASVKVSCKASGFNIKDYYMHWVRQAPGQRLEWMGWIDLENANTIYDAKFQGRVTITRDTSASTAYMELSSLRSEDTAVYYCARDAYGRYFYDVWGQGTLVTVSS VL: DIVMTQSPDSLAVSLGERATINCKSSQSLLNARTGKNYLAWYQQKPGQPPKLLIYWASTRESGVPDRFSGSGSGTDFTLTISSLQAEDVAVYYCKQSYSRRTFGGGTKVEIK	yes

Let's switch to this binder now.
Does Fab of ADI-79843 (Antibody No. 8) (Fab, V domains shown, Fab made by papain digestion of the yeast-produced human IgG1; also called Antibody No. 8 Fab; ADI-79843 Fab) VH: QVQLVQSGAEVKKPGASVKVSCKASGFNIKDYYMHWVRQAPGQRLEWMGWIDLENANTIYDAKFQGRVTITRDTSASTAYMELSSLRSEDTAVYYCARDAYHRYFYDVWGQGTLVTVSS VL: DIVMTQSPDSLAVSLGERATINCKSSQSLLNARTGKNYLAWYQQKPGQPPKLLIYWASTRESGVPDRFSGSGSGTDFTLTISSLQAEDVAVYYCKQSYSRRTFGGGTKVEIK have Kd strictly under 6 nM? yes

meta.source: patent US20260152557A1
